Target: Beta-2 adrenergic receptor (Rattus norvegicus)
attribute measured: Kapp (µM)
Could you give me the number in µM? Just the number is fine.

Please review the following examples before continuing.
CC(C)(C)NCC(O)COc1cccc2c1CCCC2=O (stereo unspecified) : 0.017
CC(=O)Nc1ccc(OCC(O)CNC(C)C)cc1 (racemic) : 313
CCCCCC(=O)Nc1ccc(OCC(O)CNC(C)C)cc1 (stereo unspecified) : 34
COc1ccc(CCNCC(O)COc2ccc(NC(C)=O)cc2)cc1OC (stereo unspecified) : 224
COc1ccc(CCNCC(O)COc2ccccc2)cc1OC (stereo unspecified) : 1.8
CCCCCC(=O)Nc1ccc(OCC(O)CNCCc2ccc(O)cc2)cc1 (stereo unspecified) : 39
CC(=O)Nc1ccc(OCC(O)CNCCc2ccc(O)cc2)cc1 (stereo unspecified) : 88
C=CCc1ccccc1OCC(O)CNC(C)C (racemic) : 0.02
CC(=O)Nc1ccccc1OCC(O)CNCCc1ccc(O)cc1 (stereo unspecified) : 16
CCCCCC(=O)Nc1ccc(OCC(O)CNCCc2ccc(O)cc2)c(Cl)c1 (stereo unspecified) : 14

Req: Entry CCCCCC(=O)Nc1ccc(OCC(O)CNCCc2ccc(OC)c(OC)c2)cc1 (stereo unspecified) has what Kapp?
Resp: 27

Req: Entry C=CCc1ccccc1OCC(O)CNCCc1ccc(O)cc1 (stereo unspecified) has what Kapp?
Resp: 0.27

Req: Entry CC(C)NCC(O)COc1ccccc1 (stereo unspecified) has what Kapp?
Resp: 0.37

Req: Entry O=C1CCCc2c(OCC(O)CNCCc3ccc(O)cc3)cccc21 (stereo unspecified) has what Kapp?
Resp: 0.56

Req: Entry CCCCCC(=O)Nc1ccc(OCC(O)CNCCc2ccc(OC)c(OC)c2)c(Cl)c1 (stereo unspecified) has what Kapp?
Resp: 17

Req: Entry Oc1ccc(CCNCC(O)COc2ccccc2)cc1 (stereo unspecified) has what Kapp?
Resp: 0.24

====

Molecular target: Beta-1 adrenergic receptor (Rattus norvegicus)
Under this convention, Yes denotes Kapp strictly below 0.4 µM and No denotes Kapp at or above 0.4 µM.

Oc1ccc(CCNCC(O)COc2ccccc2)cc1 (configuration not stated) : No
CCCCCC(=O)Nc1ccc(OCC(O)CNCCc2ccc(O)cc2)cc1 (configuration not stated) : No
CCCCCC(=O)Nc1ccc(OCC(O)CNCCc2ccc(OC)c(OC)c2)cc1 (configuration not stated) : Yes

# evaluate next
Req: Report whether reported Kapp is lower than 0.4 µM (strictly) for CC(C)NCC(O)COc1cccc2[nH]ccc12 (racemic)
Resp: Yes

====

Measured Ratio by item
Organism: Rattus norvegicus
Assay: Cardio selectivity ratio of Kapp for beta2 adrenergic receptor in rat lung muscle to Kapp for beta1 adrenergic receptor in rat ventricular muscle

Please review the following examples before continuing.
CCCCCC(=O)Nc1ccc(OCC(O)CNCCc2ccc(O)cc2)cc1 (stereo not given) : 10
Oc1ccc(CCNCC(O)COc2ccccc2)cc1 (stereo not given) : 0.3
CCCCCC(=O)Nc1ccc(OCC(O)CNC(C)C)cc1 (stereo not given) : 16
CC(C)NCC(O)COc1ccccc1 (stereo not given) : 1.5
CCCCCC(=O)Nc1ccc(OCC(O)CNCCc2ccc(OC)c(OC)c2)cc1 (stereo not given) : 77

Req: Entry CCCCCC(=O)Nc1ccc(OCC(O)CNCCc2ccc(OC)c(OC)c2)c(Cl)c1 (stereo not given) has what Ratio?
Resp: 53

Req: Entry CCCCCC(=O)Nc1ccc(OCC(O)CNCCc2ccc(O)cc2)c(Cl)c1 (stereo not given) has what Ratio?
Resp: 5

Req: Entry CC(=O)Nc1ccc(OCC(O)CNCCc2ccc(O)cc2)cc1 (stereo not given) has what Ratio?
Resp: 4.9

Req: Entry C=CCc1ccccc1OCC(O)CNC(C)C (racemic) has what Ratio?
Resp: 2.6

Req: Entry CC(=O)Nc1ccc(OCC(O)CNC(C)C)cc1 (racemic) has what Ratio?
Resp: 17
